System: T lymphocytes
Test: Inhibitory action on T lymphocyte activation stimulated by concanavalin A ([3H]thymidine uptake)
Assay type: cell-based
Conditions: mouse thymus T lymphocytes, 3 μg/ml concanavalin A, test drug 10 μM, read-out: growth-inhibitory activity, minus percentage figures relative to the control group (thymidine uptake)

>  <compound>
Cn1cnc2nc(-c3ccc(Cl)cc3Cl)nn2c1=S [Compound U]

>  <subject of test>
T lymphocytes

>  <inhibition at 10 µM>
-22%

$$$$
>  <compound>
CNC(=S)n1nc(-c2ccc(Cl)cc2)nc1N [Compound D]

>  <subject of test>
T lymphocytes

>  <inhibition at 10 µM>
-52%

$$$$
>  <compound>
Cn1cnc2nc(-c3ccc(Cl)c(Cl)c3)nn2c1=S [Compound V]

>  <subject of test>
T lymphocytes

>  <inhibition at 10 µM>
-40%

$$$$
>  <compound>
CNC(=S)n1nc(-c2ccc(C(F)(F)F)cc2)nc1N [Compound L]

>  <subject of test>
T lymphocytes

>  <inhibition at 10 µM>
-37%

$$$$
>  <compound>
Cn1cnc2nc(-c3ccc(Cl)cc3)nn2c1=S [Compound H]

>  <subject of test>
T lymphocytes

>  <inhibition at 10 µM>
-60%

$$$$
>  <compound>
Cn1cnc2nc(-c3ccc(Br)cc3)nn2c1=S [Compound R]

>  <subject of test>
T lymphocytes

>  <inhibition at 10 µM>
-58%

$$$$
>  <compound>
Cn1cnc2nc(-c3ccc(C(F)(F)F)cc3)nn2c1=S [Compound S]

>  <subject of test>
T lymphocytes

>  <inhibition at 10 µM>
-36%

$$$$
>  <compound>
CNC(=S)n1nc(-c2ccc(Br)cc2)nc1N [Compound K]

>  <subject of test>
T lymphocytes

>  <inhibition at 10 µM>
-35%

$$$$

----------
System: eosinophil
Test: Eosinophilia-Inhibitory Activity (Sephadex G-200 induced, bronchovesicular washing)
Type: in vivo
Conditions: Rattus norvegicus, ip, 168 h, rats, 30 mg/kg intraperitoneally 10 minutes prior to each Sephadex administration (day 0, 2, 5), eosinophils at 7th day
Where inhibition in vivo at 30 mg/kg equals or exceeds 80%, the correct label is y; where it does not, the label is n.

>  <smiles str>
CNC(=S)n1nc(-c2ccc(OC)cc2)nc1N

>  <cat>
n

$$$$
>  <smiles str>
CNC(=S)n1nc(-c2ccc(Cl)cc2)nc1N

>  <cat>
y

$$$$
>  <smiles str>
CNC(=S)n1nc(N)nc1N

>  <cat>
n

$$$$
>  <smiles str>
CNC(=S)n1nc(-c2ccc(Cl)cc2OC)nc1N

>  <cat>
y

$$$$
>  <smiles str>
CNC(=S)n1nc(-c2ccc(-c3ccccc3)cc2)nc1N

>  <cat>
y

$$$$
>  <smiles str>
CNC(=S)n1nc(-c2ccc(Cl)c(Cl)c2)nc1N

>  <cat>
y

$$$$
>  <smiles str>
CNC(=S)n1nc(-c2ccc(Cl)cc2Cl)nc1N

>  <cat>
y

$$$$
>  <smiles str>
CNC(=S)n1nc(-c2ccc(C#N)cc2)nc1N

>  <cat>
y

$$$$
>  <smiles str>
CNC(=S)n1nc(-c2ccc(C(F)(F)F)cc2)nc1N

>  <cat>
y

$$$$

----------
The entries below are paired with their reported inhibition in vivo at 30 mg/kg.
Test system: eosinophil
Test: Eosinophilia-Inhibitory Activity (Sephadex G-200 induced, bronchovesicular washing)
Format: in vivo
Conditions: Rattus norvegicus, ip, 168 h, rats, 30 mg/kg intraperitoneally 10 minutes prior to each Sephadex administration (day 0, 2, 5), eosinophils at 7th day

>  <smiles str>
Cn1cnc2nc(-c3ccc(C#N)cc3)nn2c1=S

>  <output unit>
%

>  <inhibition in vivo at 30 mg/kg>
79

$$$$
>  <smiles str>
Cn1cnc2nc(-c3ccc(Cl)c(Cl)c3)nn2c1=S

>  <output unit>
%

>  <inhibition in vivo at 30 mg/kg>
87

$$$$
>  <smiles str>
Cn1cnc2nc(-c3ccc(C(F)(F)F)cc3)nn2c1=S

>  <output unit>
%

>  <inhibition in vivo at 30 mg/kg>
89

$$$$
>  <smiles str>
CNC(=S)n1nc(-c2ccc(Br)cc2)nc1N

>  <output unit>
%

>  <inhibition in vivo at 30 mg/kg>
90

$$$$
>  <smiles str>
Cn1cnc2nc(-c3ccc(Cl)cc3Cl)nn2c1=S

>  <output unit>
%

>  <inhibition in vivo at 30 mg/kg>
85

$$$$
>  <smiles str>
Cn1cnc2nc(-c3ccc(Cl)cc3)nn2c1=S

>  <output unit>
%

>  <inhibition in vivo at 30 mg/kg>
83

$$$$
>  <smiles str>
Cn1cnc2ncnn2c1=S

>  <output unit>
%

>  <inhibition in vivo at 30 mg/kg>
58

$$$$
>  <smiles str>
Cn1cnc2nc(-c3ccc(F)cc3)nn2c1=S

>  <output unit>
%

>  <inhibition in vivo at 30 mg/kg>
82

$$$$
>  <smiles str>
CNC(=S)n1ncnc1N

>  <output unit>
%

>  <inhibition in vivo at 30 mg/kg>
88

$$$$
>  <smiles str>
CNC(=S)n1nc(-c2cccc(Cl)c2)nc1N

>  <output unit>
%

>  <inhibition in vivo at 30 mg/kg>
70

$$$$
>  <smiles str>
Cn1cnc2nc(-c3ccc(Br)cc3)nn2c1=S

>  <output unit>
%

>  <inhibition in vivo at 30 mg/kg>
88

$$$$

Data provenance is patent US5750545A.
